# systemTested: Voltage-gated inwardly rectifying potassium channel KCNH2 (Homo sapiens)
# Sequence (Q12809 whole entry): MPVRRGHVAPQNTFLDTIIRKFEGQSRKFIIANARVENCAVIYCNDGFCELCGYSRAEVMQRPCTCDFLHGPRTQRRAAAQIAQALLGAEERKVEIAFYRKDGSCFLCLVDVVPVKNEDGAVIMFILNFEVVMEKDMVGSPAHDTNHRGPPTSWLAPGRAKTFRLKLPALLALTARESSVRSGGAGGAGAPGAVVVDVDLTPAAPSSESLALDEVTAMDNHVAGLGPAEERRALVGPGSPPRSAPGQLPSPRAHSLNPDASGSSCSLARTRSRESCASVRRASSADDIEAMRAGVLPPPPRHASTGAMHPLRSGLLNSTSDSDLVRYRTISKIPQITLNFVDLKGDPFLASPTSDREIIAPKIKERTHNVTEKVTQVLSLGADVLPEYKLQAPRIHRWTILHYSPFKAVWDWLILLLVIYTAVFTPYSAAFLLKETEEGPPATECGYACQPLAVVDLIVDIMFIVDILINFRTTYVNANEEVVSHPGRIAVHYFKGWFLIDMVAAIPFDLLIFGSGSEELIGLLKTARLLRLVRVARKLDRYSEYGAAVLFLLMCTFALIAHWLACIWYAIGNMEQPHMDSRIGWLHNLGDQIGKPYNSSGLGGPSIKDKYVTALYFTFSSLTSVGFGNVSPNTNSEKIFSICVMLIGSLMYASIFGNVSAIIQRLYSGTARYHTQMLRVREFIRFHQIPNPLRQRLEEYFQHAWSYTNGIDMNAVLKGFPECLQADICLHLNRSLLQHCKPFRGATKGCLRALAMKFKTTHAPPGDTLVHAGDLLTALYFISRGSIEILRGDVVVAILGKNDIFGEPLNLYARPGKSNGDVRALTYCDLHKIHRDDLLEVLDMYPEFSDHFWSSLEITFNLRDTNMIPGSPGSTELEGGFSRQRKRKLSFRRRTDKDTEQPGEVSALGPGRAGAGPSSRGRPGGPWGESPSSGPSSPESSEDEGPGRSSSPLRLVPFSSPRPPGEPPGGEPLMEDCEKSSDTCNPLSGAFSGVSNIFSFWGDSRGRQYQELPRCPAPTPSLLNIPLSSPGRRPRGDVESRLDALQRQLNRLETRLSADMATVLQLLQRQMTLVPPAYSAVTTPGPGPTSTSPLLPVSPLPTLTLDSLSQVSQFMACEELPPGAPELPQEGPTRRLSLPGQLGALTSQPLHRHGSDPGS
Lab note: cut-off is 4 µM. Strictly less in IC50 is YES. Exactly 4 µM or more is NO.

INSERT INTO results (recordsmiles, category) VALUES
  ('Cc1cnc(N2CCN(Cc3ccc4c5c(c(=O)[nH]c4c3)CCCN5)CC2)n1C', 'NO'),
  ('CCc1cc2ccc(CN3CCN(c4ccc(C(=O)NC)nn4)CC3)cc2[nH]c1=O', 'NO'),
  ('Cc1cnc(N2CCN(Cc3ccc4c(c3)[nH]c(=O)c3ncccc34)CC2)n1C', 'NO'),
  ('CCc1cc2ccc(CN3CCN(c4ccc(C(=O)NC)nc4)CC3)cc2[nH]c1=O', 'NO'),
  ('Cc1cnc(N2CCN(Cc3ccc4c5c(c(=O)[nH]c4c3)CCCC5)CC2)n1C', 'YES'),
  ('CCc1cc2ccc(CN3CCN(c4cnc(C(=O)NC)cn4)CC3)cc2[nH]c1=O', 'NO'),
  ('CCc1cc2ccc(CN3CCN(c4ccc(F)cc4F)CC3)cc2[nH]c1=O', 'YES'),
  ('Cc1cnc(N2CCN(Cc3ccc4c(c3)[nH]c(=O)c3cccnc34)CC2)n1C', 'NO'),
  ('CCc1cc2ccc(CN3CCN(c4cnc(C(=O)NC)nc4)CC3)cc2[nH]c1=O', 'NO'),
  ('CCc1cc2ccc(CN3CCN(c4ncc(C)n4C)CC3)cc2[nH]c1=O', 'NO'),
  ('Cc1cnc(N2CCN(Cc3ccc4c5c(c(=O)[nH]c4c3)COCC5)CC2)n1C', 'NO'),
  ('Cc1cnc(N2CCN(CCCc3nc4c(Cl)cccc4c(=O)[nH]3)CC2)n1C', 'YES'),
  ('CCc1cc2ccc(CN3CCN(c4ccc(C(=O)NC)cc4)CC3)cc2[nH]c1=O', 'NO'),
  ('O=c1[nH]c(CCCN2CC=C(c3ccc(F)cc3)CC2)nc2c(Cl)cccc12', 'YES'),
  ('O=c1[nH]c(CCCN2CCN(c3ccc(F)cc3F)CC2)nc2c(Cl)cccc12', 'YES');

* * *

# assayMethodText: in vitro
# conditionLabel: rhesus monkey, plasma
assayMetric: fraction unbound

INSERT INTO measurements (compound, valuemeasured) VALUES
  ('CCc1cc2ncc(CN3CCN(c4ccc(C(=O)NC)nc4)CC3)cc2[nH]c1=O [SARUPARIB]', 0.043);

* * *

# systemTested: Protein mono-ADP-ribosyltransferase PARP12 (Homo sapiens, UniProt Q9H0J9)
# Sequence (Q9H0J9 whole entry): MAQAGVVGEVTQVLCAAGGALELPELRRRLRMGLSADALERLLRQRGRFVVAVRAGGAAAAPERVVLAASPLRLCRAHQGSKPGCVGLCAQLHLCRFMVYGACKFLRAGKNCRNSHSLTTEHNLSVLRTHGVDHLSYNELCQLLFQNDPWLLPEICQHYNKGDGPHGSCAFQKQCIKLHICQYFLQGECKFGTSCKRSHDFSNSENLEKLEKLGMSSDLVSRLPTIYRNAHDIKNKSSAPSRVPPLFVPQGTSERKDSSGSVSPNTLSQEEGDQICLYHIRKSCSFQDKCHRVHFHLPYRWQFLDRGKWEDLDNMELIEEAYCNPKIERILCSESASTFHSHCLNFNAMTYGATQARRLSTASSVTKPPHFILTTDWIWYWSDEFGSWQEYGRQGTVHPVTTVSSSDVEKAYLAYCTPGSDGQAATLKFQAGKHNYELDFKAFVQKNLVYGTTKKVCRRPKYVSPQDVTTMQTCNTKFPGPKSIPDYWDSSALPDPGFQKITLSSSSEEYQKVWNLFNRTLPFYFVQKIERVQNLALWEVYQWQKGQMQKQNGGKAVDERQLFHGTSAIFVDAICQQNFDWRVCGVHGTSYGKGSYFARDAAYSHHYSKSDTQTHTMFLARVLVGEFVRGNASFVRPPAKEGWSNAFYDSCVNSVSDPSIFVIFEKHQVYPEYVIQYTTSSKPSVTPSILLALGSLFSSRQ
assayMetric: Kd

INSERT INTO assay_data (recordsmiles, valuemeasured) VALUES
  ('Cn1ncnc1[C@H]1c2n[nH]c(=O)c3cc(F)cc(c23)N[C@@H]1c1ccc(F)cc1', '> 10 µM');

* * *

The entries below are paired with their reported viability at 120 h, 0.1 µM.
# assayMethodText: Hematotoxicity in CD34+ hematopoietic stem/progenitor cells (unknown origin) assessed as remaining viable cells treated at 100 nM for 5 days by cell-tire-Glo-2.0 luminescence based assay relative to control
# Assay type: toxicity, CD34-positive hematopoietic stem/progenitor cell
# conditionLabel: time 5 day, read-out: Activity
assayMetric: viability at 120 h, 0.1 µM (%)

INSERT INTO results (recordsmiles, assaymetric, valuemeasured) VALUES
  ('Cn1ncnc1[C@H]1c2n[nH]c(=O)c3cc(F)cc(c23)N[C@@H]1c1ccc(F)cc1', 'viability at 120 h, 0.1 µM', 10),
  ('CCc1cc2ncc(CN3CCN(c4ccc(C(=O)NC)nc4)CC3)cc2[nH]c1=O', 'viability at 120 h, 0.1 µM', 46);

* * *

# assayMethodText: Volume of distribution at steady state in dog
# Format: ADME, Canis lupus familiaris
# conditionLabel: in vivo, read-out: Vdss
assayMetric: Vd (L/kg)

INSERT INTO measurements (compound, assaymetric, quantityunit, valuemeasured) VALUES
  ('CCc1cc2ncc(CN3CCN(c4ccc(C(=O)NC)nc4)CC3)cc2[nH]c1=O [SARUPARIB]', 'Vd', 'L/kg', 0.3);

* * *

# assayMethodText: Oral bioavailability in monkey
# Assay type: ADME, organism-based, Macaca mulatta
# conditionLabel: rhesus monkey, in vivo
assayMetric: bioavailability (%)

INSERT INTO assay_data (molecule, valuemeasured) VALUES
  ('CCc1cc2ncc(CN3CCN(c4ccc(C(=O)NC)nc4)CC3)cc2[nH]c1=O [SARUPARIB]', 122);

* * *

# assayMethodText: Aqueous solubility of the compound at pH 7.4
# Type: physicochemical
# conditionLabel: buffer
Group membership follows solubility per the scheme lower range (below 10 µM), middle range (10 µM to below 60 µM), upper range (60 µM or more)

INSERT INTO measurements (compound, category) VALUES
  ('CCc1cc2ccc(CN3CCN(c4cnc(C(=O)NC)cn4)CC3)cc2[nH]c1=O', 'lower range'),
  ('CCc1cc2ccc(CN3CCN(c4ccc(C(=O)NC)cc4)CC3)cc2[nH]c1=O', 'lower range'),
  ('Cc1cnc(N2CCN(Cc3ccc4c5c(c(=O)[nH]c4c3)CCCN5)CC2)n1C', 'upper range'),
  ('Cc1cnc(N2CCN(Cc3ccc4c(c3)[nH]c(=O)c3cccnc34)CC2)n1C', 'middle range'),
  ('Cc1cnc(N2CCN(Cc3ccc4c(c3)[nH]c(=O)c3ncccc34)CC2)n1C', 'upper range'),
  ('CCc1nc2ccc(CN3CCN(c4ccc(C(=O)NC)nc4)CC3)cc2[nH]c1=O', 'middle range'),
  ('CCc1cc2ccc(CN3CCN(c4ncc(C)n4C)CC3)cc2[nH]c1=O', 'upper range'),
  ('O=c1[nH]c(CCCN2CCN(c3ccc(F)cc3F)CC2)nc2c(Cl)cccc12', 'lower range'),
  ('CCc1cc2cnc(CN3CCN(c4ccc(C(=O)NC)nc4)CC3)cc2[nH]c1=O', 'middle range'),
  ('CCc1cc2ccc(CN3CCN(c4ccc(C(=O)NC)nc4)CC3)cc2[nH]c1=O', 'lower range'),
  ('CCc1cc2ccc(CN3CCN(c4ccc(C(=O)NC)nn4)CC3)cc2[nH]c1=O', 'middle range'),
  ('Cc1cnc(N2CCN(Cc3ccc4c5c(c(=O)[nH]c4c3)COCC5)CC2)n1C', 'upper range'),
  ('O=c1[nH]c(CCCN2CC=C(c3ccc(F)cc3)CC2)nc2c(Cl)cccc12', 'middle range'),
  ('CCc1cc2ccc(CN3CCN(c4ccc(F)cc4F)CC3)cc2[nH]c1=O', 'lower range'),
  ('Cc1cnc(N2CCN(Cc3ccc4c5c(c(=O)[nH]c4c3)CCCC5)CC2)n1C', 'middle range'),
  ('Cc1cnc(N2CCN(CCCc3nc4c(Cl)cccc4c(=O)[nH]3)CC2)n1C', 'lower range'),
  ('CCc1cc2ccc(CN3CCN(c4cnc(C(=O)NC)nc4)CC3)cc2[nH]c1=O', 'middle range'),
  ('CCc1cc2ncc(CN3CCN(c4ccc(C(=O)NC)nc4)CC3)cc2[nH]c1=O [SARUPARIB]', 'middle range');
